Assay: Clearance in mouse liver microsomes
Format: in vitro ADME
Details: mouse, liver microsomes, CSV supplement; read-out: CLint in vitro Mouse Microsomes
Measured microsomal CLint by item

// below: answered compounds
mol=CC(C)C[C@@H]1NC(=O)[C@@H](NC(=O)OC(C)(C)C)Cc2ccc(cc2)Oc2ccc(cc2NC(=O)c2ccccn2)C(=O)CNC1=O observed_result="> 578 µL/min/mg"
mol=CC(C)(C)OC(=O)N[C@H]1Cc2ccc(cc2)Oc2ccc(cc2NC(=O)c2ccccn2)C(=O)CNC(=O)[C@H](c2ccccc2)NC1=O observed_result="206 µL/min/mg"

Entry `CC(C)(C)C(=O)N[C@H]1Cc2ccc(cc2)Oc2ccc(cc2NC(=O)c2ccccn2)C(=O)CNC(=O)[C@H](Cc2ccccc2)NC1=O` ; microsomal CLint = > 578 µL/min/mg

Reported microsomal CLint for `CC(C)(C)OC(=O)N[C@H]1Cc2ccc(cc2)Oc2ccc(cc2NC(=O)c2ccccn2)CCNC(=O)[C@H](Cc2ccccc2)NC1=O` was > 578 µL/min/mg

Documented microsomal CLint of `CC(C)(C)OC(=O)N[C@H]1Cc2ccc(cc2)Oc2ccc(cc2NC(=O)c2ccccn2)C(=O)CNC(=O)[C@H](Cc2ccccc2)NC1=O` : > 578 µL/min/mg

Form field microsomal CLint, entry `CC(C)(C)OC(=O)N[C@H]1Cc2ccc(cc2)Oc2ccc(cc2NC(=O)c2ccccn2)C(=O)CNC(=O)[C@@H](Cc2ccccc2)NC1=O` : > 578 µL/min/mg

###

Known microsomal CLint of a selection of compounds
Experiment: Clearance in mouse liver microsomes
Type: in vitro ADME
Conditions: mouse, liver microsomes, incubation with mouse liver microsomes; read-out: CLint

Worked set:
mol=CC(C)(C)C(=O)N[C@H]1Cc2ccc(cc2)Oc2ccc(cc2NC(=O)c2ccccn2)C(=O)CNC(=O)[C@H](Cc2ccccc2)NC1=O quantity_measured="microsomal CLint" observed_result="> 580 µL/min/mg"
mol=CC(C)(C)OC(=O)N[C@H]1Cc2ccc(cc2)Oc2ccc(cc2)C(=O)CNC(=O)[C@H](Cc2ccccc2)NC1=O quantity_measured="microsomal CLint" observed_result="> 580 µL/min/mg"
mol=CC(C)C[C@@H]1NC(=O)[C@@H](NC(=O)OC(C)(C)C)Cc2ccc(cc2)Oc2ccc(cc2NC(=O)c2ccccn2)C(=O)CNC1=O quantity_measured="microsomal CLint" observed_result="> 580 µL/min/mg"
mol=CC(C)(C)OC(=O)N[C@H]1Cc2ccc(cc2)Oc2ccc(cc2NC(=O)c2ccccn2)C(=O)CNC(=O)[C@@H](Cc2ccccc2)NC1=O quantity_measured="microsomal CLint" observed_result="> 580 µL/min/mg"

microsomal CLint reported for this compound `CC(=O)N[C@H]1Cc2ccc(cc2)Oc2ccc(cc2NC(=O)c2ccccn2)C(=O)CNC(=O)[C@H](Cc2ccccc2)NC1=O` : 130 µL/min/mg

response.value for `COc1ccc(C[C@H](NC(=O)OC(C)(C)C)C(=O)N[C@@H](Cc2ccccc2)C(=O)NCC(=O)c2cccc(NC(=O)c3ccccn3)c2)cc1` (field: microsomal CLint) = > 580 µL/min/mg

Memo: `C[C@@H]1NC(=O)[C@@H](NC(=O)OC(C)(C)C)Cc2ccc(cc2)Oc2ccc(cc2NC(=O)c2ccccn2)C(=O)CNC1=O` , reported microsomal CLint: 300 µL/min/mg

response.value for `CC(C)(C)OC(=O)N[C@H]1Cc2ccc(cc2)Oc2ccc(cc2NC(=O)c2ccccn2)C(=O)CNC(=O)[C@H](Cc2ccccc2)NC1=O` (field: microsomal CLint) = > 580 µL/min/mg

Item: `CC(C)(C)OC(=O)N[C@H]1Cc2ccc(cc2)Oc2ccc(cc2NC(=O)c2ccccn2)C(=O)CNC(=O)[C@H](c2ccccc2)NC1=O` | microsomal CLint: 210 µL/min/mg

The measurements presented in this section are drawn from paper PMC11513892.
